- Test system: Nitrosomonas spp.
- protocol-description: Nitrification of ammonium in soil incubated at 25° C. (ammonium recovery, nitrate accumulation)
- condition-notes: 0.10 ppm; week 9; soil 25° C.; 200 ppm N
Counter-ions that a name gives are not always drawn.
Measured Recovery of Ammonium Nitrogen accompanies every entry in the list below.
measured-parameter: Recovery of Ammonium Nitrogen

compound="CC[C@@]1([C@@H]2O[C@@H]([C@H]3O[C@@](O)(CO)[C@H](C)C[C@@H]3C)C[C@@H]2C)CC[C@H]([C@]2(C)CC[C@]3(C[C@H](O)[C@@H](C)[C@@H]([C@@H](C)[C@@H](OC)[C@H](C)C(=O)O)O3)O2)O1 [Monensin sodium salt, Monensin]" target_entity="Nitrosomonas spp." recorded_value="3 PPM"
compound="CC[C@@H](C(=O)[C@@H](C)[C@@H](O)[C@H](C)CCc1ccc(C)c(O)c1C(=O)O)[C@H]1O[C@](CC)([C@H]2CC[C@](O)(CC)[C@H](C)O2)C[C@@H]1C [Lasalocid sodium salt, Lasalocid]" target_entity="Nitrosomonas spp." recorded_value="0 PPM"
compound="CC[C@@H](C(=O)[C@@H](C)[C@@H](O)[C@H](C)[C@@H]1O[C@@H]([C@@H](CC)C(=O)O)CC[C@@H]1C)[C@H]1O[C@]2(C=C[C@@H](O)[C@]3(CC[C@@](C)([C@H]4CC[C@](O)(CC)[C@H](C)O4)O3)O2)[C@H](C)C[C@@H]1C [Salinomycin monosodium salt, Salinomycin]" target_entity="Nitrosomonas spp." recorded_value="3 PPM"
compound="CO[C@@H]1[C@@H](OC)[C@H](C)[C@@](O)(CC(=O)O)O[C@H]1[C@H](C)[C@H]1O[C@@]2(CC[C@@](C)([C@H]3CC[C@@](C)([C@@H]4O[C@@H]([C@H]5O[C@](C)(O)[C@H](C)C[C@@H]5C)C[C@@H]4O[C@@H]4C[C@H](OC)[C@@H](OC)[C@H](C)O4)O3)O2)C[C@H](O)[C@H]1C [Maduramicin monoammonium salt, Maduramicin]" target_entity="Nitrosomonas spp." recorded_value="110 PPM"
